Values compiled from patent US20090018163A1.

- test_system: NK-1 (Homo sapiens, UniProt P25103)
- Construct: 30 ul/well of a 2×U373 membrane preparation; endogenous in cells; host or cells: U373 cells (crude membrane preparation)
- Sequence (P25103 whole entry): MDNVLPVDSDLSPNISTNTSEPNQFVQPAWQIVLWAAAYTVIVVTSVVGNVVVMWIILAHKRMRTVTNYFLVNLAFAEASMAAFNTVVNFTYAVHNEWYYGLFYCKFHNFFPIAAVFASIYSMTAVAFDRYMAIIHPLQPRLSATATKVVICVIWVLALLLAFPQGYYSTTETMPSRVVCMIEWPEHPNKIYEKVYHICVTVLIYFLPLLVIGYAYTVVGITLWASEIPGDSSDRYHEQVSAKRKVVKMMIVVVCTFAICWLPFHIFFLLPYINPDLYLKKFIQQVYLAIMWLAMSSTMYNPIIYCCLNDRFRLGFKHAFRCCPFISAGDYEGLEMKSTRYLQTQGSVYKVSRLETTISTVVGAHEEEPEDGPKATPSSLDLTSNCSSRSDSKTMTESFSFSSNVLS
- procedure_text: NK1 radioligand binding assay
- experimental_context: U373 membrane preparation, [125I]Substance P; Table 1
measured_endpoint: IC50

According to the records, this compound Cc1cc(COCC2(c3ccccc3)CCN(C)CC2)c2ccccc2n1 displays IC50 of > 300 nM

According to the records, this compound CN1CCC(COCc2cc(-c3ccc(C#N)cc3)cc3cccnc23)(c2ccccc2)CC1 displays IC50 of > 300 nM

According to the records, this compound Brc1cc(COCC2(c3ccccc3)CCNCC2)c2ncccc2c1 displays IC50 of 0.01 to 100 nM

According to the records, this compound CN1CCC(COCc2cc(N)c3ccccc3n2)(c2ccccc2)CC1 displays IC50 of > 300 nM

According to the records, this compound CC(OCC1(c2ccccc2)CCNCC1)c1cc(C(F)(F)F)cc2cccnc12 (centres unmarked) displays IC50 of 0.01 to 100 nM

According to the records, this compound Cc1ccc2cc(COCC3(c4ccccc4)CCNCC3)ccc2n1 displays IC50 of > 300 nM

According to the records, this compound COc1ccc2cc(C)cc(C(C)OCC3(c4ccc(F)cc4)CCN(C)CC3)c2n1 (centres unmarked) displays IC50 of 0.01 to 100 nM

According to the records, this compound Cc1cc(COCC2(c3ccc(F)cc3)CCN(C)CC2)c2ncccc2c1 displays IC50 of 0.01 to 100 nM

According to the records, this compound Cc1ccc2c(C)cc(COCC3(c4ccccc4)CCNCC3)nc2c1 displays IC50 of > 300 nM

According to the records, this compound N#Cc1ccc(-c2cc(COCC3(c4ccccc4)CCNCC3)nc3ccccc23)cc1 displays IC50 of > 300 nM

According to the records, this compound Cc1cc(COCC2(c3ccc(F)cc3F)CCN(C)CC2)c2ncccc2c1 displays IC50 of 100 to 300 nM

According to the records, this compound Cc1cc(C(C)OCC2(c3ccc(F)cc3)CCN(C)CC2)c2nc(F)ccc2c1 (centres unmarked) displays IC50 of 0.01 to 100 nM

According to the records, this compound Cc1cc(C(C)OCC2(c3ccc(F)cc3)CCN(C)CC2)c2nc(Cl)ccc2c1 (centres unmarked) displays IC50 of 0.01 to 100 nM

According to the records, this compound Cc1cc(COCC2(c3ccccc3)CCN(C)CC2)nc2ccccc12 displays IC50 of 100 to 300 nM

According to the records, this compound Cc1cc(C(C)OCC2(c3ccc(F)cc3F)CCN(C)CC2)c2ncccc2c1 (centres unmarked) displays IC50 of 0.01 to 100 nM

According to the records, this compound Nc1cc(COCC2(c3ccccc3)CCNCC2)nc2ccccc12 displays IC50 of > 300 nM

According to the records, this compound Cc1cc(COCC2(c3ccccc3)CCNCC2)nc2ccccc12 displays IC50 of 100 to 300 nM

According to the records, this compound Cc1cc(C(C)OCC2(c3ccccc3)CCNCC2)c2ncccc2c1 (centres unmarked) displays IC50 of 0.01 to 100 nM

According to the records, this compound Cc1cc(C(C)OCC2(c3ccc(F)cc3)CCN(C)CC2)c2ncccc2c1 (centres unmarked) displays IC50 of 0.01 to 100 nM

According to the records, this compound Cc1ccc2nc(COCC3(c4ccccc4)CCNCC3)cc(C)c2c1 displays IC50 of > 300 nM
